- Method Notes: Permeability across artificial membrane
- Type: ADME
- Experimental Context: PAMPA; read-out: permeability
Measured Property: Papp

Papp lookup needed for CC(C)OC(=O)c1ccc(NC(=O)N[C@@H](Cc2ccc(O)cc2)C(=O)N[C@H]2CCC[N+](C)(Cc3cccc(O)c3)C2)cc1.[I-] (stereo partly specified) , thanks. < 0.3 ×10⁻⁶ cm/s

====

# pIC50 annotations
- System: Muscarinic acetylcholine receptor M2 (Homo sapiens)
- Sequence (P08172 whole entry): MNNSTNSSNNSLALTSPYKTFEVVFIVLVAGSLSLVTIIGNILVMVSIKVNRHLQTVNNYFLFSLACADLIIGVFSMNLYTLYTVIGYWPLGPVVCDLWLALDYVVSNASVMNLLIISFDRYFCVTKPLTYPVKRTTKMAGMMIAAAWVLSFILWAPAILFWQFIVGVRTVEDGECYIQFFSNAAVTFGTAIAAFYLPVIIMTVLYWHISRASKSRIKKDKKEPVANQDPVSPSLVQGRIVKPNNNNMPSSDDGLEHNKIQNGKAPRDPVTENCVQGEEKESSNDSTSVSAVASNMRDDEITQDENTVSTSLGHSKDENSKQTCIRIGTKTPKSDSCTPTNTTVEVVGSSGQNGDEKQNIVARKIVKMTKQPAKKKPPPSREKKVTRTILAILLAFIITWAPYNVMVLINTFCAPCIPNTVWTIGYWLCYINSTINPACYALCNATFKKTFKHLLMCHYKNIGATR
- Method Notes: Antagonist activity at human muscarinic acetylcholine M2 receptor expressed in CHO cells coexpressed with Gqi5 assessed as inhibition of acetylcholine-induced calcium mobilization by FLIPR assay
As a rule, pIC50 stands for the negative log10 of the concentration, concentration in M.

# count of solved cases: 3
Compound	System	pIC50
CCOC(=O)c1ccc(NC(=O)N[C@H](Cc2ccc(O)cc2)C(=O)N[C@@H]2CCN(Cc3ccc(O)cc3)C2)cc1	Muscarinic acetylcholine receptor M2 (Homo sapiens)	4.70
CCOC(=O)c1ccc(NC(=O)N[C@@H](Cc2ccc(O)cc2)C(=O)NC2CCN(Cc3ccc(O)cc3)C2)cc1 (stereo not given in full)	Muscarinic acetylcholine receptor M2 (Homo sapiens)	6.80
CCOC(=O)c1ccc(NC(=O)N[C@@H](Cc2ccc(O)cc2)C(=O)N[C@@H]2CCN(Cc3ccc(O)cc3)C2)cc1	Muscarinic acetylcholine receptor M2 (Homo sapiens)	5.80

pIC50 lookup needed for CCOC(=O)c1ccc(NC(=O)N[C@@H](Cc2ccc(O)cc2)C(=O)N[C@H]2CCN(Cc3ccc(O)cc3)C2)cc1 , thanks. 6.90

Try this compound next: CCOC(=O)c1ccc(NC(=O)N[C@H](Cc2ccc(O)cc2)C(=O)N[C@H]2CCN(Cc3ccc(O)cc3)C2)cc1 5.30
